Would you kindly list TGI for each of these compounds?
System: MOLT-4 leukemia
assayExplanation: NCI tumour cell line growth inhibition, 48 h

What does the data say about its TGI? Entry: COc1ccc(/C=C/C(=O)c2c(-c3ccccc3)nn(C)c(=O)c2N2CC2C)cc1 (stereo not given)
> 100 µM

What does the data say about its TGI? Entry: `O/N=C\c1c2c(cc3c1CCC3)CCC2`
> 100 µM

What does the data say about its TGI? Entry: `CNC(=O)[C@H](Cc1ccccc1)NC(=O)N(CCC#N)CCN(C(=O)N[C@@H](Cc1ccccc1)C(=O)OC)c1ccccc1`
> 100 µM

What does the data say about its TGI? Entry: `O=C(Nc1cccc(-n2ccc3c(NC(=O)c4ccccc4)ncnc32)c1)Nc1ccc(Cl)c(C(F)(F)F)c1`
12.7 µM

What does the data say about its TGI? Entry: `CC(C)c1cc(=O)[nH]c2cc(N)ccc12`
> 100 µM
